Where these numbers come from: patent US8952033B2

- Tested on: MCF-7 (breast cancer cell)
- measurement description: MTT antiproliferative assay (cell growth %, GI50), MCF-7
- Format: cell-based
- condition parameters: Homo sapiens, MCF7; 4 mg/ml, 48 hours, MTT
property name: activity at 4000 µg/mL (%)

| compound | property name | endpoint value |
| --- | --- | --- |
| C/C(=N\OCCN1CCCCC1)c1ccc(Nc2c3ccccc3nc3occ(Cl)c23)cc1 [Compound 14f] | activity at 4000 µg/mL | 121 |
| C/C(=N\OCCN)c1ccc(Nc2c3ccccc3nc3occc23)cc1 [Compound 13a] | activity at 4000 µg/mL | 66 |
| C/C(=N\OCCCN(C)C)c1ccc(Nc2c3ccccc3nc3occ(Cl)c23)cc1 [Compound 14d] | activity at 4000 µg/mL | 61 |
| C/C(=N\OCCN1CCOCC1)c1ccc(Nc2c3ccccc3nc3occc23)cc1 [Compound 13g] | activity at 4000 µg/mL | 120 |
| C/C(=N\OCCCN)c1ccc(Nc2c3ccccc3nc3occ(Cl)c23)cc1 [Compound 14c] | activity at 4000 µg/mL | 46 |
| CC(=O)c1ccc(Nc2c3ccccc3nc3occc23)cc1 [Compound 1, reference compound] | activity at 4000 µg/mL | 69 |
| COc1ccc2c(Nc3ccc(/C(C)=N/OCCN(C)C)cc3)c3ccoc3nc2c1 [Compound 15b] | activity at 4000 µg/mL | 67 |
| COc1ccc2c(Nc3ccc(/C(C)=N/OCCN4CCCC4)cc3)c3c(Cl)coc3nc2c1 [Compound 16e] | activity at 4000 µg/mL | 55 |

---

- Tested on: MCF-7 (breast cancer cell)
- measurement description: MTT antiproliferative assay (cell growth %, GI50), MCF-7
- Type: cell-based
- condition parameters: Homo sapiens, MCF7; 4 mg/ml, 48 hours, MTT
- Method: Antiproliferative activities of the compounds of this invention were evaluated substantially according to the method as described in Tseng, C. […] Before and after the treatment with the test compounds or DMSO, 3-(4,5-dimethylthiazol-2-yl)-2,5-diphenyltetrazolium bromide (MTT, 2 mg/mL, 100 μL) was added to each of the cultures, followed by cultivation for 2 hours. […] Absorbance at 570 nm (OD570) was measured using a microtiter plate reader (Dynex MRX-II). […]
Listed below: activity at 4000 µg/mL values for each entry.

| compound | activity at 4000 µg/mL |
| --- | --- |
| COc1ccc2c(Nc3ccc(/C(C)=N/OCCCCN4CCOCC4)cc3)c3c(Cl)coc3nc2c1 [Compound 16h] | 96% |
| COc1ccc2c(Nc3ccc(/C(C)=N/OCCN4CCCCC4)cc3)c3c(Cl)coc3nc2c1 [Compound 16f] | 56% |
| CO/N=C(\C)c1ccc(Nc2c3ccccc3nc3occc23)cc1 [Compound 3, reference compound] | 63% |
| C/C(=N\OCCN1CCCCC1)c1ccc(Nc2c3ccccc3nc3occc23)cc1 [Compound 13f] | 114% |
| COc1ccc2c(Nc3ccc(/C(C)=N/OCCN4CCOCC4)cc3)c3ccoc3nc2c1 [Compound 15g] | 76% |
| COc1ccc2c(Nc3ccc(/C(C)=N/OCCCN)cc3)c3c(Cl)coc3nc2c1 [Compound 16c] | 101% |
| COc1ccc2c(Nc3ccc(/C(C)=N/OCCN4CCOCC4)cc3)c3c(Cl)coc3nc2c1 [Compound 16g] | 85% |
| C/C(=N\OCCN1CCCC1)c1ccc(Nc2c3ccccc3nc3occc23)cc1 [Compound 13e] | 64% |
